Provenance of the data: patent US7276481B2

- MEASURED_ON: natriuretic peptide receptor on C3H10T1/2 cells (Mus musculus)
- Construct: endogenous in cells; host or cells: C3H10T1/2 cells
- Sequence (Q6VVW5 23-1047 limits assumed): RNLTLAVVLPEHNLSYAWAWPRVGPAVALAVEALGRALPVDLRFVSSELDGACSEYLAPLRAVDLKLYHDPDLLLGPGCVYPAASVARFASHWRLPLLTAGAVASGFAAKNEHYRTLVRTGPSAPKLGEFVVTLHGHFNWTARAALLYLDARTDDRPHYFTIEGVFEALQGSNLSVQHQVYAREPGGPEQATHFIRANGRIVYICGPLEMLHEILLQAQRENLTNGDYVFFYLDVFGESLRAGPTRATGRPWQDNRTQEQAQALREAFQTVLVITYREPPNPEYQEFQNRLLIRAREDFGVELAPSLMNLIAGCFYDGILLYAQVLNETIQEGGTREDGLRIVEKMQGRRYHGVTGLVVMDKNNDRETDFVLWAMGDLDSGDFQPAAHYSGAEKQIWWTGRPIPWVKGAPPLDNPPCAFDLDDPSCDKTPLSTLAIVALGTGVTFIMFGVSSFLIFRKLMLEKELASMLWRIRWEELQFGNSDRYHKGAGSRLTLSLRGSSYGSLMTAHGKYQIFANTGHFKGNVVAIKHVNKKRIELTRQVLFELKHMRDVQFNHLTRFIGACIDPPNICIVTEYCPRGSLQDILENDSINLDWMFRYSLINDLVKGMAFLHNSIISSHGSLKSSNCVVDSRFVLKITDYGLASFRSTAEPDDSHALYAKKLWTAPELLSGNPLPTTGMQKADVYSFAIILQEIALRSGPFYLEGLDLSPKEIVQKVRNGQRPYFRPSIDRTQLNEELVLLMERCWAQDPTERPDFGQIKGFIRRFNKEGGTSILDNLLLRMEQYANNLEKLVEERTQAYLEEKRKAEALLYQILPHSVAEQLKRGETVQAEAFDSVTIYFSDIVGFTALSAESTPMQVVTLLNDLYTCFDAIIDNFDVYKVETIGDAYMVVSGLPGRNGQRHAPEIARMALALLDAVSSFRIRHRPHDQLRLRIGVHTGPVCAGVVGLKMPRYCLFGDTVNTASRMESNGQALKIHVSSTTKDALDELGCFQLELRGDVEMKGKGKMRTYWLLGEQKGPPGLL
- EXPERIMENT: Biotrak enzyme immunoassay of cGMP elicited on C3H10T1/2 cells
- Type: cell-based
- RUN_PARAMETERS: Table 2; cGMP assay, compared to CNP
Exam item: assign YES to entries whose cGMP response as percent of CNP is below 20% and NO to entries at or above 20%. Note that a value of exactly 20% receives NO.

Worked set:
C F G L K L D R I G S M S - - - C (CFGLKLDRIGSMSC; peptide variant) [SEQ ID NO:14] :: NO
C F G L K L D A I G S M S G L G C (CFGLKLDAIGSMSGLGC; peptide variant) [SEQ ID NO:8] :: YES
C F G L K L A R I G S M S G L G C (CFGLKLARIGSMSGLGC; peptide variant) [SEQ ID NO:7] :: NO
C F G L K L D R I G - - - - - - C (CFGLKLDRIGC; peptide variant) [SEQ ID NO:22] :: YES
C F G L K L D R I G A Q S - - - C (CFGLKLDRIGAQSC; peptide variant) [SEQ ID NO:15] :: NO

Shifting focus to the sequence that follows.
Q) Take the sequence C H F G L K L D R I - - - - - - C (CHFGLKLDRIC; peptide variant) [SEQ ID NO:23] and say whether its cGMP response as percent of CNP is less than 20%.
A) YES
